Every entry's value here was drawn from paper PMC3060082.

Tested on: NAADP receptor
Assay: Competition ligand binding with [32P]NAADP in sea urchin egg homogenate
Details: assay not specified
In this section we review reported loss of potency relative to NAADP values for a set of compounds.

structureAsSmiles | measuredTarget | loss of potency relative to NAADP
Nc1cc[n+]([C@H]2O[C@@H](COP(=O)(O)OP(=O)(O)OC[C@H]3O[C@@H](n4cnc5c(N)ncnc54)[C@H](OP(=O)(O)O)[C@@H]3O)[C@H](O)[C@@H]2O)cc1C(=O)[O-] | NAADP receptor | 100 to 200 fold

Below: the item to evaluate.
Record CCc1cc(C(=O)[O-])c[n+]([C@H]2O[C@@H](COP(=O)(O)OP(=O)(O)OC[C@H]3O[C@@H](n4cnc5c(N)ncnc54)[C@H](OP(=O)(O)O)[C@@H]3O)[C@H](O)[C@@H]2O)c1 . Reported loss of potency relative to NAADP: 20 fold

----------
Test system: NAADP receptor
Experiment: Ca2+ release from Ca2+ loaded sea urchin egg homogenates
Format: biochemical, sea urchin (Strongylocentrotus purpuratus)
Settings: text summary of concentration response curves, Figure 2 / Table 3
measure: potency for Ca2+ release compared to NAADP (fold less potent)

Record CCc1cc(C(=O)[O-])c[n+]([C@H]2O[C@@H](COP(=O)(O)OP(=O)(O)OC[C@H]3O[C@@H](n4cnc5c(N)ncnc54)[C@H](OP(=O)(O)O)[C@@H]3O)[C@H](O)[C@@H]2O)c1 . Reported potency for Ca2+ release compared to NAADP (fold less potent): 10 to 100 fold
